B1: Ankyrin repeat and SAM domain-containing protein 6, residues 774 to 836; numbered along this chain, Q68DC2 (parent)
chain: DEDELTGILKKLSLEKYQPIFEEQEVDMEAFLTLTDGDLKELGIKTDGSRQQILAAISELNAG

# Variants of: B1
# assay.comment: abundance fitness (aPCA) (normalised: wild type 0, dead -1); higher = more abundant; growth selection in yeast, the domain comes from the species named
# condition.notes: Homo sapiens
Documented abundance fitness across a set of variants
Returns: the value as a bare number; no unit string appended.

Note abundance fitness for the variant shown: `DEDELTGILKKLILEKYQPIFEEQEVDMEAFLTLTDGDLKELGIKTDGSRQQILAAISELNAG`
-0.202

Note abundance fitness for the variant shown: `DEDELTGDLKKLSLEKYQPIFEEQEVDMEAFLTLTDGDLKELGIKTDGSRQQILAAISELNAG`
-0.51

Note abundance fitness for the variant shown: `DEDELTGILKKLSLEKYQPIFEEQQVDMEAFLTLTDGDLKELGIKTDGSRQQILAAISELNAG`
-0.204

Note abundance fitness for the variant shown: `DEDELTGILKKLSLEKYQPIFEEQEVDMEAFLTLTDGDLKELGIKTDGSRQQILAAISENNAG`
-0.286

Note abundance fitness for the variant shown: `DEDELTGILKKLSLEKYQPIFEEQEVDMEAFLTLTDGDLKELGIKTDGSRTQILAAISELNAG`
-0.163
